System: SN12C renal
ASSAY_PROTOCOL: NCI tumour cell line growth inhibition, 48 h
Field: TGI. Provide a value for each of the compounds that follow.

[[record]]
compound = "NC1=NC2(COC(c3ccccc3)(c3ccccc3)c3ccccc3)OC(COC(c3ccccc3)(c3ccccc3)c3ccccc3)C(O)C2O1 (centres undefined)"
target_desc = "SN12C renal"
metric_name = "TGI"
measured_value = "> 100 µM"


For each of the items listed, what is its TGI?
1. COc1cc(/C=C/c2cc(/C=C/c3ccc(O)c(OC)c3)n(C(=O)c3ccccc3Br)n2)ccc1O
2. O=[N+]([O-])c1ccc(/C=N/Nc2nc3ccccc3[nH]2)o1
3. COC(CN(C)C(=S)Nc1cccc2ccccc12)OC
4. CCN1CCC(O)(c2ccc([N+](=O)[O-])cc2)C(C(=O)c2ccc([N+](=O)[O-])cc2)C1 (centres undefined)
5. Cc1ccc(S(=O)(=O)N(CC(O)COc2ccccc2)c2c(F)cccc2F)cc1 (centres undefined)

Ans:
["> 100 µM", "32.6 µM", "> 10 µM", "38.8 µM", "47.8 µM"]

For each of the items listed, what is its TGI?
1. C#Cc1ccc(-n2c(/C=C/c3ccc(O)cc3)nc3ncccc3c2=O)cc1
2. Cc1c(C)c2c(c(N)c1C#N)C(=O)N(Cc1ccc(S(N)(=O)=O)cc1)C2=O
3. [B]C(=O)NC(CC(C)C)C(=O)NCC(=O)NC1c2ccsc2C(=O)C1O (centres undefined) (tested in a mixture with another compound)
4. CCOC(=O)c1cn(CC)c(=O)n2c1nc1ccccc12

Ans:
1. > 100 µM
2. > 100 µM
3. > 100 µM
4. > 100 µM

For each of the items listed, what is its TGI?
1. O=C(c1ccc(Cl)cc1)C1OC12C(=O)Nc1c(Cl)cc(Cl)cc12 (centres undefined)
2. C=C1CC[C@@H](CCC2CCC3(OC2)O[C@]2(O)CC[C@@]3(C)OC2(C)C)C(C)(C)[C@H]1C/C=C1\CCOC1=O (some centres undefined)
3. Cc1ccc(S[C@@](C=O)(NC(=O)OCc2ccccc2)C(F)(F)F)cc1

Ans:
> 100 µM
51.1 µM
91.7 µM

For each of the items listed, what is its TGI?
1. N#Cc1ccccc1OCCOc1ccccc1C#N
2. Cc1ccc(S(=O)(=O)NCCCCC(N)C(=O)O)cc1 (centres undefined)
3. O=[N+]([O-])c1ccc(-c2ccc(C3=Nn4c(CNc5ccccc5Cl)nnc4SC3)o2)cc1
4. COC(=O)C1CCC(=O)N1CN(C(C)=O)c1cccc(O)c1 (centres undefined)
5. CCOC(=O)C1(C)CCC(C(C(=O)O)C(=O)O)CC1=O (centres undefined)
6. COc1ccc(-c2[nH]c3ccc(OC)cc3c2C=C(C#N)C#N)cc1
7. Cc1ccc(N=N/C(=N/NC(=O)c2ccccc2)c2ccc(N(CCC#N)CCC#N)cc2C)cc1
8. Cc1cc2nc3c(C#N)c(-c4ccccc4)/c(=C\Nc4ccc(F)cc4)c(=O)n3c2cc1C

Ans:
1. > 100 µM
2. > 100 µM
3. > 100 µM
4. > 100 µM
5. > 100 µM
6. > 100 µM
7. > 100 µM
8. > 100 µM
